- METHOD SUMMARY: Solubility of RPL554 salts in saline solutions, water and aqueous buffer solutions at 25° C. (HPLC)
- Format: physicochemical
- PARTICULARS: 24 hours
Counter-ions that a name gives are not always drawn.
Classification field: enter class 1 for Solubility as RPL554 (mg/ml) in 1.1 w/w % Saline values not below 1 mg/mL, class 0 for values below it.

{"MOLECULE": "COc1cc2c(cc1OC)-c1c/c(=N\\c3c(C)cc(C)cc3C)n(CCNC(N)=O)c(=O)n1CC2 [Methanesulfonate, RPL554 methanesulfonate]", "ASSIGNED LABEL": "class 1"}
{"MOLECULE": "COc1cc2c(cc1OC)-c1c/c(=N\\c3c(C)cc(C)cc3C)n(CCNC(N)=O)c(=O)n1CC2 [Naphthalene-2-sulfonate]", "ASSIGNED LABEL": "class 0"}
{"MOLECULE": "COc1cc2c(cc1OC)-c1c/c(=N\\c3c(C)cc(C)cc3C)n(CCNC(N)=O)c(=O)n1CC2 [Phosphate, RPL554 phosphate]", "ASSIGNED LABEL": "class 1"}
{"MOLECULE": "COc1cc2c(cc1OC)-c1c/c(=N\\c3c(C)cc(C)cc3C)n(CCNC(N)=O)c(=O)n1CC2 [p-Toluenesulfonate, RPL554 p-toluenesulfonate]", "ASSIGNED LABEL": "class 0"}
{"MOLECULE": "COc1cc2c(cc1OC)-c1c/c(=N\\c3c(C)cc(C)cc3C)n(CCNC(N)=O)c(=O)n1CC2 [Sulfate, RPL554 sulfate]", "ASSIGNED LABEL": "class 1"}
{"MOLECULE": "COc1cc2c(cc1OC)-c1c/c(=N\\c3c(C)cc(C)cc3C)n(CCNC(N)=O)c(=O)n1CC2 [Ethanesulfonate, RPL554 ethanesulfonate]", "ASSIGNED LABEL": "class 1"}

----------
Recorded Calculated RPL554 solubilised (%) for the following compounds
- METHOD SUMMARY: Solubility of RPL554 and salts in pMDI propellant systems
- Format: physicochemical
- PARTICULARS: in HFA 134
READOUT: Calculated RPL554 solubilised (%)

{"COMPOUND": "COc1cc2c(cc1OC)-c1c/c(=N\\c3c(C)cc(C)cc3C)n(CCNC(N)=O)c(=O)n1CC2 [p-Toluenesulfonate, RPL554 p-toluenesulfonate]", "READOUT UNITS": "%", "ASSAY RESULT": 0.08}
{"COMPOUND": "COc1cc2c(cc1OC)-c1c/c(=N\\c3c(C)cc(C)cc3C)n(CCNC(N)=O)c(=O)n1CC2 [Ethanesulfonate, RPL554 ethanesulfonate]", "READOUT UNITS": "%", "ASSAY RESULT": 5.56}

----------
- METHOD SUMMARY: Solubility of RPL554 and salts in pMDI propellant systems
- Type: physicochemical
- PARTICULARS: in HFA 134 with Ethanol/Tween
- Method: Quantitative assessment of the solubility of RPL554 and salt variants in the propellant systems of selected pMDI formulations (three replicates of each formulation) was performed. pMDIs were directly coupled to an adaptor fitted with a 0.20 μm filter unit connected, in series to a 21 G needle, which was inserted via a rubber septum, into a cooled multi-dose glass vial. A 19 G filter needle was inserted through the septum to aid evaporation of propellant from the vial. […]
Where a name gives a salt, the structure may show the parent alone.
READOUT: Estimated Solubilised RPL554 μg per 50 μL actuation (µg)

{"COMPOUND": "COc1cc2c(cc1OC)-c1c/c(=N\\c3c(C)cc(C)cc3C)n(CCNC(N)=O)c(=O)n1CC2 [Benzenesulfonate, RPL554 benzenesulfonate]", "ASSAY RESULT": 6.05}
{"COMPOUND": "COc1cc2c(cc1OC)-c1c/c(=N\\c3c(C)cc(C)cc3C)n(CCNC(N)=O)c(=O)n1CC2 [Ethanesulfonate, RPL554 ethanesulfonate]", "ASSAY RESULT": 17.81}
{"COMPOUND": "COc1cc2c(cc1OC)-c1c/c(=N\\c3c(C)cc(C)cc3C)n(CCNC(N)=O)c(=O)n1CC2 [Methanesulfonate, RPL554 methanesulfonate]", "ASSAY RESULT": 19.38}
{"COMPOUND": "COc1cc2c(cc1OC)-c1c/c(=N\\c3c(C)cc(C)cc3C)n(CCNC(N)=O)c(=O)n1CC2 [Sulfate, RPL554 sulfate]", "ASSAY RESULT": 4.71}
{"COMPOUND": "COc1cc2c(cc1OC)-c1c/c(=N\\c3c(C)cc(C)cc3C)n(CCNC(N)=O)c(=O)n1CC2 [p-Toluenesulfonate, RPL554 p-toluenesulfonate]", "ASSAY RESULT": 10.58}
